# fraction ligated values compiled below
Tested on: F1*sub RNA substrate (template-directed ligation)
test.details: fraction ligated after 30 min (ligated reads / total reads); higher = more ligase activity; sequences stand for … in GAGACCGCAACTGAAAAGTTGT…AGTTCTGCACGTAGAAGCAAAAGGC
experimental.conditions: 42 °C
Provide a numeric answer; units are not to be included.

Examples with their reported fraction ligated follow.
TATCACTTGTCTAAGCATTTGGATGGGTTGA [3d1848] | 0.818
TATCACTTGTCGTAGACACTTGATGGGTTGA [3d2036] | 0.657
TATCACTTGTCGAAGAACTTTGGAGGGTTGA [3d1939] | 0.111
TATCACTGTCGTAAGACCTTTGATGGGTTGA [3d1427] | 0.773
TATCACTTGTCGAAGAACTTTGGATGGGTTG [3d1942] | 0.798
TATCACTTTCGTAAGACACTTTGGGGGTTGA [3d1574] | 0.0345

**Query** Report fraction ligated for TATCATTGTCGAAGACACTTTGGTGGGTTGA [3d1209] please.
**Result** 0.229

**Query** Thanks! And TATCACTTGTCGTAGACATTGGATGGGTTGA [3d2028] ?
**Result** 0.815

----------
Test system: F1*sub RNA substrate (template-directed ligation)
test.details: fraction ligated after 30 min (ligated reads / total reads); higher = more ligase activity; sequences stand for … in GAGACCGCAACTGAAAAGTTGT…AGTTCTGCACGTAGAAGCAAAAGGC
experimental.conditions: 42 °C
Rule: fraction ligated under 0.2 gives No, otherwise Yes.

TATCACTTGTCGAAGAACTTTGGATGGTTGA [3d1940] | No
TATCACTTTCGTAACACTTTGGATGGGTTGA [3d1507] | Yes
TATCACTTGTCGTAAGACATTTGGATGGTTA [3d2227] | No
TATCATTGTCGTAAGACATTGGATGGGTTGA [3d1262] | Yes
ATCACTTGTCGTAAGACATTTGATGGGTTGA [3d247] | No
TATCACTTGTCGTAAGACACTTTGGGGGTTGA [2d289] | No
TATCACTTGTGTAAGACACTTGGATGGGTTA [3d1791] | Yes
TATCATTGTCGTAGACACTTTGGTGGGTTGA [3d1222] | Yes
TATCACTTGTCGTAGCACTTTGGATGGTTGA [3d2010] | No
TATCATTTCGTAAGACACTTTGGATGGGTTGA [2d110] | Yes

**Query** Decide: fraction ligated of TTCACTTGTGTAAGACCTTTGGATGGGTTGA [3d393] >= 0.2?
**Result** Yes

**Query** Thanks! And TATACTTGTGTAAGACACTTTGGAGGGTTGA [3d839] ?
**Result** No

**Query** Thanks! And TATCATTGTCGTAAGACACTTTGGTGGGTTG [3d1285] ?
**Result** Yes

----------
# fraction ligated values compiled below
Test system: F1*sub RNA substrate (template-directed ligation)
test.details: fraction ligated after 30 min (ligated reads / total reads); higher = more ligase activity; sequences stand for … in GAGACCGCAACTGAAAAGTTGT…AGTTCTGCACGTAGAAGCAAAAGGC
experimental.conditions: 42 °C
Provide a numeric answer; units are not to be included.

Examples with their reported fraction ligated follow.
TACACTTGTCGAAGACCTTTGGATGGGTTGA [3d650] | 0.1
TATCACTTTCGTAAGACATTTGGATGGTTGA [3d1558] | 0.286
TATCACTTGCGTAGACACTTTGGATGGGTTA [3d1637] | 0.781
ATCACTTGTCGTAAGACACTTTGTGGGTTGA [3d261] | 0.0128

**Query** Report fraction ligated for TATCACTTGTGTAAGACATTTGGATGGTTGA [3d1783] please.
**Result** 0.169

**Query** Thanks! And TATCACTGTGTAAACACTTTGGATGGGTTGA [3d1346] ?
**Result** 0.845

----------
# fraction ligated values compiled below
Tested on: F1*sub RNA substrate (template-directed ligation)
test.details: fraction ligated after 30 min (ligated reads / total reads); higher = more ligase activity; sequences stand for … in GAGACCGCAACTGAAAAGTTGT…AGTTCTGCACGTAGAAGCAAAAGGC
experimental.conditions: 42 °C
Provide a numeric answer; units are not to be included.

TATCACTTGCGTAAGACACTTTGGATGGGTTGA [1d9] | 0.85
TTCACTTGCGTAAGACACTTTGGATGGGTTA [3d385] | 0.0657
TTCACTTGTCGAGACACTTTGGATGGGTTGA [3d416] | 0.206
ATCACTGTCGTAAGACCTTTGGATGGGTTGA [3d115] | 0.726
TTCACTGTCGTAAGACACTTTGGTGGGTTGA [3d350] | 0.0639

**Query** Report fraction ligated for TACACTTGCGTAAGACCTTTGGATGGGTTGA [3d608] please.
**Result** 0.0714

----------
Tested on: F1*sub RNA substrate (template-directed ligation)
test.details: fraction ligated after 30 min (ligated reads / total reads); higher = more ligase activity; sequences stand for … in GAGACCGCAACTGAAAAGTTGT…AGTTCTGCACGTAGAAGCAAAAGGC
experimental.conditions: 42 °C
assay.readout: fraction ligated
Provide a numeric answer; units are not to be included.

ATCACTTTCGTAAGCACTTTGGATGGGTTGA [3d129] | 0.766

**Query** Report fraction ligated for TATCCTTGTCGTAAGACACTTTGGAGGGTTA [3d1115] please.
**Result** 0.00568

**Query** Thanks! And TACACTTGTCGTAACACTTTGGATGGGTTGA [3d660] ?
**Result** 0.00473

**Query** Thanks! And TACACTTGTCTAGACACTTTGGATGGGTTGA [3d633] ?
**Result** 0.195

**Query** Thanks! And TATCACTTGTCTAAAACTTTGGATGGGTTGA [3d1836] ?
**Result** 0.789

**Query** Thanks! And TATCACTTGCGTAAGACCTTTGGATGGGTTA [3d1672] ?
**Result** 0.785

**Query** Thanks! And TACACTTGTCGTAAGACACTTTGAGGGTTGA [3d723] ?
**Result** 0.0442

----------
Test system: F1*sub RNA substrate (template-directed ligation)
test.details: fraction ligated after 30 min (ligated reads / total reads); higher = more ligase activity; sequences stand for … in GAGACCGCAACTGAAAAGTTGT…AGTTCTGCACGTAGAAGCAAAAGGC
experimental.conditions: 42 °C
assay.readout: fraction ligated
Provide a numeric answer; units are not to be included.

TATCACTTGTCGAAGACACTTTGGATGGTTGA [2d218] | 0.615

# ---- query sequence ----
**Query** Short answer please: fraction ligated, F1*sub RNA substrate (template-directed ligation), entry TATACTTGTCGTAAGACACTTTGGTGGGTTA [3d940]
**Result** 0.00259

----------
Tested on: F1*sub RNA substrate (template-directed ligation)
test.details: fraction ligated after 30 min (ligated reads / total reads); higher = more ligase activity; sequences stand for … in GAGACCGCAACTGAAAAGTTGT…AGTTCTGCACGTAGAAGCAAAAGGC
experimental.conditions: 42 °C
Categories are assigned from the measured fraction ligated using these intervals: lower range = under 0.03, middle range = from 0.03 up to 0.7, upper range = 0.7 and over

Worked cases, answers included:
TATCACTGTCGTAAGACACTTTGGTGGTTGA [3d1454] | lower range
TATCACTTGGTAAGACACTTTGGATGGGTTA [3d1597] | upper range
TATCACTTGTCGTAAGACACTTTATGGGTTGA [2d283] | lower range
TATCACTTGTCGTAGACCTTTGGATGGGTTA [3d2026] | upper range

**Query** Which band does TATCACTTGTGTAAGAACTTGGATGGGTTGA [3d1765] fall in?
**Result** upper range

**Query** Thanks! And TATCACTTGTGTAAGACACTTTGGATGGGTT [3d1808] ?
**Result** middle range

**Query** Thanks! And TATCACTTTCGTAAGAACTTTGGATGGGTTA [3d1545] ?
**Result** upper range

**Query** Thanks! And TATACTTGTCGTAAACACTTGGATGGGTTGA [3d886] ?
**Result** middle range

**Query** Thanks! And TATCATTGTCGTAAGACACTTTGAGGGTTGA [3d1278] ?
**Result** lower range

**Query** Thanks! And TATCACTTGCGTAAGACACTTGATGGGTTGA [3d1682] ?
**Result** upper range

**Query** Thanks! And ATCACTTGTCGTAAGACATTTGGTGGGTTGA [3d248] ?
**Result** lower range
